Tested on: MCF10A
Experiment: one-nucleolus phenotype percent effect (relative to siNT 0% and siNOL11 100%); higher = more cells with one nucleolus (ribosome biogenesis inhibition)
Conditions: 20 nM; 72 h
Please go through the items and note down their one-nucleolus phenotype percent effect.
One number for each entry, in %.

Provide each entry's one-nucleolus phenotype percent effect from the list below.
1. CGUGGAUUGUCUGGAUGCAU [hsa-miR-8056]
2. UCACGCGGAGAGAUGGCUUUG [hsa-miR-3186-3p]

*A*
1: 12.9; 2: 11.3

// batch mode: one one-nucleolus phenotype percent effect value per listed entry
1. UUAAUUUUUUGUUUCGGUCACU [hsa-miR-4775]
2. UUCAUUUGCCUCCCAGCCUACA [hsa-miR-664b-3p]
3. UUGGACGGUAAGGUUAAGCAA [hsa-miR-4804-5p]

*A*
1: -18.6; 2: 39.1; 3: 9.42

Batch of 7 sequences: report one-nucleolus phenotype percent effect for each.
1. CUCAGUGACUCAUGUGC [hsa-miR-4276]
2. GUGUUGAAACAAUCUCUACUG [hsa-miR-653]
3. ACGGAUGUUUGAGCAUGUGCUA [hsa-miR-105-3p]
4. UCGCGGUUUGUGCCAGAUGACG [hsa-miR-579-5p]
5. CUCGGCCGCGGCGCGUAGCCCCCGCC [hsa-miR-4665-3p]
6. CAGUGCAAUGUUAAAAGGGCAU [hsa-miR-130a-3p]
7. UCCUCAUCACACUGCACCUUAG [hsa-miR-6072]

*A*
1. 17.5
2. -22.2
3. -17
4. -22.2
5. -15.1
6. -19.9
7. 13.4

// batch mode: one one-nucleolus phenotype percent effect value per listed entry
1. UAACGGCCGCGGUACCCUAA [hsa-miR-4485]
2. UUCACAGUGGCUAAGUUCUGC [hsa-miR-27b-3p]
3. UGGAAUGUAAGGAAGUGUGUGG [hsa-miR-206]
4. UCACCAGCCCUGUGUUCCCUAG [hsa-miR-1226-3p]

*A*
1: 0.183; 2: -13.3; 3: 48.4; 4: 33.5

Could I get one-nucleolus phenotype percent effect for every one of these entries?
1. UAGGGGUGGGGGAAUUCAGGGGUGU [hsa-miR-6782-5p]
2. UGCACGGCACUGGGGACACGU [hsa-miR-3177-3p]

*A*
[-3.68, 33.1]

Items follow; give one-nucleolus phenotype percent effect for each.
1. CAAGGGACCAAGCAUUCAUUAU [hsa-miR-4475]
2. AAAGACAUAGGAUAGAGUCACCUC [hsa-miR-641]
3. CUUGGGAGCCCUGUUAGACUC [hsa-miR-887-5p]

*A*
[7.86, -15.4, -32.3]

Hi, could you look up one-nucleolus phenotype percent effect for each item in my list?
1. GAAAGUGCUUCCUUUUAGAGGC [hsa-miR-526b-3p]
2. GAGACAGGUUCAUGCUGCUA [hsa-miR-4524b-3p]
3. UCAAGUGUCAUCUGUCCCUAG [hsa-miR-6513-3p]
4. CGCCUGCCCAGCCCUCCUGCU [hsa-miR-4763-5p]

*A*
-23.4
37.3
-7.47
11.6

Would you be so kind as to report one-nucleolus phenotype percent effect for each listed record?
1. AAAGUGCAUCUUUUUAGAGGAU [hsa-miR-519c-3p]
2. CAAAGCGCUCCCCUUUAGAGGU [hsa-miR-518b]
3. UCGCAGACAGGGACACAUGGAGA [hsa-miR-6767-5p]
4. ACCCGUCCCGUUCGUCCCCGGA [hsa-miR-1247-5p]

*A*
1. -25.5
2. 61.9
3. -5.76
4. -16.3

The values you see were collected from the supplement of paper PMC10899765.
